Field: TGI. Provide a value for each of the molecules that follow.
System: SNB-75 CNS
Experiment: NCI tumour cell line growth inhibition, 48 h

Hey, SNB-75 CNS data for CCCCCCCC/C=C\CCCCCCC(F)C(=O)O (stereo not drawn) : TGI came out at > 12.5 µM

Hey, SNB-75 CNS data for Nc1ncnc2c1nc(-c1ccccc1)n2C1OC(CO)C(O)C1O (stereo not drawn) : TGI came out at > 100 µM

Hey, SNB-75 CNS data for ClC1CCC2OOC1O2 (stereo not drawn) : TGI came out at > 100 µM

---

Test system: HL-60(TB) leukemia
Experiment: NCI tumour cell line growth inhibition, 48 h
Non-standard residues stand in square brackets, D forms with d. Residues, ends and D or L forms follow the SMILES beside them. ξ: configuration not given here. *: point of attachment. Boc = CC(C)(C)OC(=O)*; ξV = CC(C)C(N)C(=O)O; OBn = c1ccc(CO*)cc1
Field: TGI. Provide a value for each of the molecules that follow.

The molecule "O=S(=O)(N=S(c1ccc(Cl)cc1)c1ccc(Cl)cc1)c1ccccc1" showed TGI equal to > 100 µM

The molecule "C[C@]12CCC(=O)C=C1CC[C@@H]1[C@@H]2CC[C@]2(C)C(=O)[C@H](n3ccnc3)C[C@@H]12" showed TGI equal to > 100 µM

The molecule CCCCCC(O)[C@H]1C(=O)C[C@@H](O[Si](C)(C)C(C)(C)C)[C@@H]1/C=C/CCOCc1ccccc1 (stereo partly drawn) showed TGI equal to > 100 µM

The molecule CCOC(=O)C(NC(=O)c1ccccc1)(Nc1ccc(S(=O)(=O)Nc2nc(C)cc(C)n2)cc1)C(F)(F)F (stereo not drawn) showed TGI equal to > 100 µM

The molecule N#CC(c1ccccc1)N1CCCN(C(C#N)c2ccccc2)C1c1ccccc1O (stereo not drawn) showed TGI equal to > 100 µM

The molecule CC(C)C(NC(=O)OC(C)(C)C)C(=O)NCC(=O)OCc1ccccc1 (stereo not drawn) (Boc-[ξV]-Gly-OBn) showed TGI equal to 44.2 µg/mL

The molecule O=C(O)C(Cc1c[nH]c2ccccc12)N=Cc1nc(-c2ccccc2)oc1O (stereo not drawn) showed TGI equal to > 100 µM

The molecule "Cc1ccc2c(=O)cc(-c3cccc4ccccc34)[nH]c2n1" showed TGI equal to 0.0318 µM

The molecule "COc1ccc2c(c1)CCc1c(-c3noc4c3CCc3cc(OC)ccc3-4)noc1-2" showed TGI equal to > 100 µM

The molecule "CCOC(=O)c1nc2ccccc2nc1NCc1ccc(OC)cc1" showed TGI equal to > 100 µM

The molecule "Cn1c(=O)[nH]c2[nH]c3ccccc3c2c1=O" showed TGI equal to > 100 µM

The molecule "N[C@H]1CCN(c2c(F)cc3c(=O)c(C(=O)O)cn4c3c2Oc2cc3c(ccc5ccccc53)cc2-4)C1" showed TGI equal to > 100 µM

The molecule "C[C@@H](CO)OCOCc1ccccc1" showed TGI equal to > 100 µM

The molecule "NCC#CCNCCCN1CC1" showed TGI equal to > 100 µM

The molecule "O=C(NCc1ccccc1)c1cc2cc(O)c(O)cc2cn1" showed TGI equal to 48.6 µM

The molecule "CN(CCCNC(=O)c1cn(C)c2c1ccc1cc(Cl)c(Cl)cc12)CCCNC(=O)c1cn(C)c2c1ccc1cc(Cl)c(Cl)cc12" showed TGI equal to 8.32 µM

The molecule COC(=O)C(C(=O)C(=O)Nc1ccccc1C(C)=O)c1nc2ccc(Cl)cc2[nH]c1=O (stereo not drawn) showed TGI equal to > 100 µM

The molecule COC1=NC(NC2OCC(O)C(O)C2O)=C(NC(C)=O)CN1C (stereo not drawn) showed TGI equal to > 100 µM
